B1: EEHEE_rd4_0363 (parent)
chain: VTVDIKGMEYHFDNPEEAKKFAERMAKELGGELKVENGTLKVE

# Variants of: B1
# Experiment Description: folding stability dG (cDNA display proteolysis); higher = more stable
# Measurement Conditions: PBS, room temperature
Observation Type: folding stability dG (kcal/mol)
Write the answer as a number in kcal/mol, unit excluded.

VTVDIKGMEYHFDNPEEAKKFAERMALELGGELKVENGTLKVE [K27L] = 2.35
VTVDIKGMEYHFDNPEEAKKFAERMAKELLGELKVENGTLKVE [G30L] = 1.34
VTVDIKGMEYHFDNPEEAKKFAERMAKELGGEEKVENGTLKVE [L33E] = 0.789
VTVDIKGMEYHFDNPEEAKKFACRMAKELGGELKVENGTLKVE [E23C] = 2.35
VTVDIKGMEYHFDNPEEAKKFAERMAKELGGELKVTNGTLKVE [E36T] = 1.78

Looking up VTVDIKGMEYHFDNPEEAKKFAERMAKELGGELKVINGTLKVE [E36I] , I found its folding stability dG recorded as 2.43

Looking up VTVDIKGMEYHFDNPEAAKKFAERMAKELGGELKVENGTLKVE [E17A] , I found its folding stability dG recorded as 1.7

Looking up VTVDIKGMEYHFDNPEEAKKFAERYAKELGGELKVENGTLKVE [M25Y] , I found its folding stability dG recorded as 1.34

Looking up VTVDIKGMEYHFDNPEEAKVFAERMAKELGGELKVENGTLKVE [K20V] , I found its folding stability dG recorded as 1.73

Looking up VTVDIKGMEYHFDNPEEAKKQAERMAKELGGELKVENGTLKVE [F21Q] , I found its folding stability dG recorded as -0.803

Looking up VTVDWKGMEYHFDNPEEAKKFAERMAKELGGELKVENGTLKVE [I5W] , I found its folding stability dG recorded as 1.49

Looking up VTVDIKGMEYHFDNPEEAKKFAERMAKELGGELKVENGTLKEE [V42E] , I found its folding stability dG recorded as 0.783

Looking up VTVDIKGMEYHFDNPEEAKKFAPRMAKELGGELKVENGTLKVE [E23P] , I found its folding stability dG recorded as -0.639

Looking up VTVDIKGMEYHADNPEEAKKFAERMAKELGGELKVENGTLKVE [F12A] , I found its folding stability dG recorded as -0.113

Looking up VTVDIKGMEYHFDNPEEAKKFAERMAKELGGELKVENGTLDVE [K41D] , I found its folding stability dG recorded as 0.86

Looking up VTVDIKGMEYHFDNPEEAKKFAECMAKELGGELKVENGTLKVE [R24C] , I found its folding stability dG recorded as 2.83

Looking up VTVDIKGMEYHFDNPCEAKKFAERMAKELGGELKVENGTLKVE [E16C] , I found its folding stability dG recorded as 2.17

Looking up VTVDCKGMEYHFDNPEEAKKFAERMAKELGGELKVENGTLKVE [I5C] , I found its folding stability dG recorded as 1.99

Looking up VTVDIKGMEYHFDNPEEAKKMAERMAKELGGELKVENGTLKVE [F21M] , I found its folding stability dG recorded as -0.083
